All figures here come from patent US11447481B2.

resultType: melting point

> print(dat)
                             chemicalsmiles   measuredresult
1  N#Cc1ccc(=O)n(Cc2ccc(-c3noc(C(F)(F)F)n3)cc2)c1    174 to 176 °C
2  COc1nn(Cc2ccc(-c3noc(C(F)(F)F)n3)cc2)c(=O)n1C  129 to 130.8 °C
3  Cc1cccn(Cc2ccc(-c3noc(C(F)(F)F)n3)cc2)c1=O    115 to 117 °C

---

Quick list: melting point per entry.
resultType: melting point

> print(dat)
                             chemicalsmiles   measuredresult
1  O=c1ccc(F)cn1Cc1ccc(-c2noc(C(F)(F)F)n2)cc1    125 to 126 °C
2  Cn1nnn(CCc2ccc(-c3noc(C(F)(F)F)n3)cc2)c1=O      92 to 94 °C
3  O=C1OCC(c2ccc(Cl)cc2Cl)=NN1Cc1ccc(-c2noc(C(F)(F)F)n2)cc1  139.5 to 140 °C
4  O=c1ccccn1Cc1ccc(-c2noc(C(F)(F)F)n2)c(F)c1F    154 to 156 °C
5  Cc1ccn(CCc2ccc(-c3noc(C(F)(F)F)n3)cc2)c(=O)c1    146 to 148 °C
6  Cc1cccc(=O)n1Cc1ccc(-c2noc(C(F)(F)F)n2)cc1      88 to 90 °C
7  Cn1nnn(Cc2ccc(-c3noc(C(F)(F)F)n3)cc2)c1=O    104 to 106 °C
8  Cc1nn(Cc2ccc(-c3noc(C(F)(F)F)n3)cc2)c(=O)o1  133.8 to 136 °C
9   O=c1ccccn1Cc1ccc(-c2noc(C(F)(F)F)n2)cc1    142 to 144 °C
